Target: T1, Axl (Homo sapiens, UniProt P30530)
T1 sequence (P30530 26-451 limits assumed): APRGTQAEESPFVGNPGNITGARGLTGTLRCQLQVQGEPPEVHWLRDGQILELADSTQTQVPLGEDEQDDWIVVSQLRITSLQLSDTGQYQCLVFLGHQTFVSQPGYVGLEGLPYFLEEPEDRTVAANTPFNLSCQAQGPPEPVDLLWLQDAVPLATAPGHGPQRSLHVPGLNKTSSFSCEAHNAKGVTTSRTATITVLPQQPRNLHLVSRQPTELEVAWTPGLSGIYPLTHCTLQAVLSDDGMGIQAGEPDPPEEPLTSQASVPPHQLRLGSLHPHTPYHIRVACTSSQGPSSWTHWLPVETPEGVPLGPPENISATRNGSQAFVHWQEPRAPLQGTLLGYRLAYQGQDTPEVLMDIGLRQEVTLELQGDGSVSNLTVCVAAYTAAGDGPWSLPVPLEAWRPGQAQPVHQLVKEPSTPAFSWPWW
Test: Affinity ELISA of CPE mutant antibodies for binding to Axl at pH 6.0 over pH 7.4
Settings: heavy chain variable region mutants; 1:9 dilution
Below, each of the molecules is paired with its reported Affinity ELISA CPE mutant ratio (1:9, pH 6.0/7.4) value.
measurement label: Affinity ELISA CPE mutant ratio (1:9, pH 6.0/7.4)

{"molecule": "HC-A106Y (antibody, V domains shown) VH: EVQLVQSGAEVKKPGATVKISCKVSGYSFTGHTMNWIRQPPGKGLEWIGLIKPSNGGTSYNQKFKGRVTISADKSISTAYLQWSSLKASDTAMYYCAHGHYESYFYMDYWGQGTLVTVSS VL: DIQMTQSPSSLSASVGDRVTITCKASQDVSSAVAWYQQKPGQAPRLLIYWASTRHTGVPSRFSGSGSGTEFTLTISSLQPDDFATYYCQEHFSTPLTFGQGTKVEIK", "recorded measurement": 3.060}
{"molecule": "HC-S103D (antibody, V domains shown) VH: EVQLVQSGAEVKKPGATVKISCKVSGYSFTGHTMNWIRQPPGKGLEWIGLIKPSNGGTSYNQKFKGRVTISADKSISTAYLQWSSLKASDTAMYYCAHGHYEDYFAMDYWGQGTLVTVSS VL: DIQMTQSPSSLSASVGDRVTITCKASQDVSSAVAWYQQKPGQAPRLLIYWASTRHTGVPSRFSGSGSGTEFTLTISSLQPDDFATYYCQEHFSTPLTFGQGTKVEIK", "recorded measurement": 2.230}
{"molecule": "HC-Y101N (antibody, V domains shown) VH: EVQLVQSGAEVKKPGATVKISCKVSGYSFTGHTMNWIRQPPGKGLEWIGLIKPSNGGTSYNQKFKGRVTISADKSISTAYLQWSSLKASDTAMYYCAHGHNESYFAMDYWGQGTLVTVSS VL: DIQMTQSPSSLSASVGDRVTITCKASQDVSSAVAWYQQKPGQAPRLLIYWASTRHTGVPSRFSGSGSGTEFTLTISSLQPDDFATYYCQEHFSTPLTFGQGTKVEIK", "recorded measurement": 2.907}
